FYI, the data here is from patent US6855348B2.

System: Dermatophagoides farinae
condition.summary: 0.5 mg/tube, 24 hr
endpoint: Mortality (Means ± standard error, %)
Write it as a number; the unit % goes unstated.

What does the data say about its Mortality (Means ± standard error, %)? Entry: OC/C=C/c1ccccc1 [cinnamyl alcohol]
90.0

What does the data say about its Mortality (Means ± standard error, %)? Entry: O=C/C=C/c1ccccc1 [trans-cinnamaldehyde]
94.0

What does the data say about its Mortality (Means ± standard error, %)? Entry: O=Cc1ccccc1O [salicylaldehyde]
99.0

---

Field: Mortality (Means ± standard error, %). Provide a value for each of the compounds that follow.
System: Dermatophagoides farinae
condition.summary: 0.25 mg/tube, 24 hr
Procedure: American house dust mite (Dermatophagoides farinae) and European house dust mite (Dermatophagoide pteronyssinus) were maintained at 75±5% RH (relative humidity) at 25±1° C., and were provided a feed mixture of fish meal and multi-vitamins in a ratio of 1 to 1 on a 12.5×10.5×5 cm container. The starting concentration is important for the primary screening of bioactive compounds from plant extracts and oils. […] Mortalities were determined with a microscope at 24 hours and 48 hours after treatment. […]

What does the data say about its Mortality (Means ± standard error, %)? Entry: CCCCN=C=S [butyl isothiocyanate]
20.0 ± 1.6 c %

What does the data say about its Mortality (Means ± standard error, %)? Entry: OC/C=C/c1ccccc1
10.0 ± 3.8c %

What does the data say about its Mortality (Means ± standard error, %)? Entry: C=CCN=C=S [allyl isothiocyanate]
7.0 ± 3.0 d %

What does the data say about its Mortality (Means ± standard error, %)? Entry: O=Cc1ccccc1O
26.0 ± 2.0c %

What does the data say about its Mortality (Means ± standard error, %)? Entry: O=C/C=C/c1ccccc1 [trans-cinnamaldehyde]
21.0 ± 2.5cd %

---

Test system: Dermatophagoides farinae
condition.summary: 0.25 mg/tube, 48 hr
endpoint: Mortality (Means ± standard error, %)

What does the data say about its Mortality (Means ± standard error, %)? Entry: C=CCN=C=S [allyl isothiocyanate]
8.0%

What does the data say about its Mortality (Means ± standard error, %)? Entry: O=Cc1ccccc1O
34.02.6bc %

What does the data say about its Mortality (Means ± standard error, %)? Entry: OC/C=C/c1ccccc1
10.0 ± 4.1c %

What does the data say about its Mortality (Means ± standard error, %)? Entry: O=C/C=C/c1ccccc1 [trans-cinnamaldehyde]
30.0 ± 8.7bc %

What does the data say about its Mortality (Means ± standard error, %)? Entry: CCCCN=C=S [butyl isothiocyanate]
27.0%

---

System: Dermatophagoides pteronyssinus
condition.summary: 0.4 mg/tube, 24 hr
Field: Mortality (Means ± standard error, %). Provide a value for each of the compounds that follow.
Write it as a number; the unit b % goes unstated.

What does the data say about its Mortality (Means ± standard error, %)? Entry: OC/C=C/c1ccccc1
56.0

What does the data say about its Mortality (Means ± standard error, %)? Entry: O=Cc1ccccc1O
44.0

What does the data say about its Mortality (Means ± standard error, %)? Entry: C=CCN=C=S [allyl isothiocyanate]
33.0

What does the data say about its Mortality (Means ± standard error, %)? Entry: O=C/C=C/c1ccccc1 [trans-cinnamaldehyde]
33.0

What does the data say about its Mortality (Means ± standard error, %)? Entry: CCCCN=C=S [butyl isothiocyanate]
39.0

---

Field: Mortality (Means ± standard error, %). Provide a value for each of the compounds that follow.
System: Dermatophagoides pteronyssinus
condition.summary: 0.25 mg/tube, 24 hr
Write it as a number; the unit cd % goes unstated.

What does the data say about its Mortality (Means ± standard error, %)? Entry: O=C/C=C/c1ccccc1 [trans-cinnamaldehyde]
9.0

What does the data say about its Mortality (Means ± standard error, %)? Entry: CCCCN=C=S [butyl isothiocyanate]
21.0

What does the data say about its Mortality (Means ± standard error, %)? Entry: C=CCN=C=S [allyl isothiocyanate]
9.0
